- assaySystem: UniProt:P24941
reportedProperty: IC50

                      structuresmilesstring  reportedproperty  recordedresult
0  CC(=O)c1ccc(N2CCN(C(=O)CN3CC[C@@H](C(=O)Nc4ccc(O)c(Cl)c4)C3)CC2)cc1              IC50         > 50 µM

* * *

- assaySystem: Mitogen-activated protein kinase 1 (Homo sapiens, UniProt P28482)
- Sequence (P28482 whole entry): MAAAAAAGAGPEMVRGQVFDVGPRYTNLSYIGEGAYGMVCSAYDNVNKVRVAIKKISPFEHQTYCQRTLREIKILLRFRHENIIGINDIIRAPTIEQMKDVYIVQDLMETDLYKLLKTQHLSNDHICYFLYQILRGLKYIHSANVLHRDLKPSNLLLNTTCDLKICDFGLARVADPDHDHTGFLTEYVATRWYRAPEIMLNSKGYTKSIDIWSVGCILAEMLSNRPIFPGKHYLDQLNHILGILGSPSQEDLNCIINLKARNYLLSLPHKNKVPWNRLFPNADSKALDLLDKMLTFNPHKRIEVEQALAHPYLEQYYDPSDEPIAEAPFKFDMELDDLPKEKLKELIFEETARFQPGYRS
- testMethodNotes: Inhibition of activated ERK2 (unknown origin) using IMAP peptide substrate after 30 mins by activated ERK2 assay
IC50 values for the molecules below.
reportedProperty: IC50 (µM)

>>> df
                                   molecule                               assaysystem  resultunits  relationqualifier  recordedresult
0  CC(=O)c1ccc(N2CCN(C(=O)CN3CC[C@@H](C(=O)Nc4ccc(O)c(Br)c4)C3)CC2)cc1  Mitogen-activated protein kinase 1 (Homo sapiens, UniProt P28482)           µM                  =             3.6
1  CC(=O)c1ccc(N2CCN(C(=O)CN3CC[C@@H](C(=O)Nc4ccc(O)cc4Cl)C3)CC2)cc1  Mitogen-activated protein kinase 1 (Homo sapiens, UniProt P28482)           µM                  =              50
2  O=C(NOC[C@H](O)CO)c1ccc(F)c(F)c1Nc1ccc(I)cc1F [MIRDAMETINIB]  Mitogen-activated protein kinase 1 (Homo sapiens, UniProt P28482)           µM                  >              40
3  CC(=O)c1ccc(N2CCN(C(=O)CN3CC[C@@H](C(=O)Nc4ccc(O)c(F)c4)C3)CC2)cc1  Mitogen-activated protein kinase 1 (Homo sapiens, UniProt P28482)           µM                  =            11.6

* * *

pIC50 values for the molecules below.
- assaySystem: Mitogen-activated protein kinase 1 (Homo sapiens)
- testMethodNotes: Inhibition of activated ERK2 (unknown origin) using IMAP peptide substrate after 30 mins by activated ERK2 assay
pIC50: −log10 of the molar value.
reportedProperty: pIC50

>>> df
                                   molecule  reportedproperty  recordedresult
0  CC(=O)c1ccc(N2CCN(C(=O)CN3CC[C@@H](C(=O)Nc4ccc(O)c(Cl)c4)C3)CC2)cc1             pIC50            5.59
1  O=C(Nc1ccc(O)c(Cl)c1)[C@@H]1CCN(CC(=O)N2CCN(c3ccc(-c4ccoc4)cc3)CC2)C1             pIC50            5.26
2  CC(=O)c1ccc(N2CCN(C(=O)CN3CCC(C(=O)Nc4ccc(O)cc4)C3)CC2)cc1 (racemic)             pIC50            4.73
3  CC(=O)c1ccc(N2CCN(C(=O)CN3CC[C@H](C(=O)Nc4ccc(O)c(Cl)c4)C3)CC2)cc1             pIC50            4.49
4  CC(=O)c1ccc(N2CCN(C(=O)CN3CC[C@@H](C(=O)Nc4ccc(O)c(C)c4)C3)CC2)cc1             pIC50            5.60
5  O=C(Nc1ccc(O)c(Cl)c1)[C@@H]1CCN(CC(=O)N2CCN(c3cccc(Cl)c3)CC2)C1             pIC50            5.68
6  O=C(Nc1ccc(O)c(Cl)c1)[C@@H]1CCN(CC(=O)N2CCN(c3ccc(-c4ccccc4)cc3)CC2)C1             pIC50            5.36
7  O=C(Nc1ccc(O)c(Cl)c1)[C@@H]1CCN(CC(=O)N2CCN(c3ccc(Br)cc3)CC2)C1             pIC50            5.09

* * *

- assaySystem: Cyclin-dependent kinase 6 (Homo sapiens)
- Sequence (Q00534 whole entry): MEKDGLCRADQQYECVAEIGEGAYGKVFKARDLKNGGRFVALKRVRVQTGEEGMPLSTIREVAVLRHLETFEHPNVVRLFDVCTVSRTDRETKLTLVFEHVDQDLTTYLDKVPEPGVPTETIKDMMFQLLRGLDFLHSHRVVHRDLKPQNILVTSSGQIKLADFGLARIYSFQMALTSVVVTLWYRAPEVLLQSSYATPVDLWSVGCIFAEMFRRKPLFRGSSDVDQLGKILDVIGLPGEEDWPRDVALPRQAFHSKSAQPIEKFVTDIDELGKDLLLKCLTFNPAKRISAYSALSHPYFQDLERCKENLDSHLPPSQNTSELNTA
- testMethodNotes: Inhibition of CDK6 (unknown origin)
reportedProperty: IC50

>>> print(df.to_string())
                      structuresmilesstring  reportedproperty  recordedresult
0  CC(=O)c1ccc(N2CCN(C(=O)CN3CC[C@@H](C(=O)Nc4ccc(O)c(Cl)c4)C3)CC2)cc1              IC50         > 50 µM

* * *

- assaySystem: Mitogen-activated protein kinase 1 (Homo sapiens, UniProt P28482)
- testMethodNotes: Inhibition of activated ERK2 (unknown origin) using IMAP peptide substrate after 30 mins by activated ERK2 assay
reportedProperty: IC50 (µM)

In [3]: df
Out[3]:
                                   compound  reportedproperty  recordedresult
0  O=C(Nc1ccc(O)c(Cl)c1)[C@@H]1CCN(CC(=O)N2CCN(c3ccc(-c4ccsc4)cc3)CC2)C1              IC50              20
1  CC(=O)c1ccc(N2CCN(C(=O)CN3CCC(C(=O)Nc4ccc(O)c(Cl)c4)C3)CC2)cc1 (racemic)              IC50             4.2
2  O=C(Nc1ccc(O)cc1)C1CCN(CC(=O)N2CCN(c3cccc(Cl)c3)CC2)C1 (racemic)              IC50            12.2
3  O=C(Nc1ccc(O)c(Cl)c1)[C@@H]1CCN(CC(=O)N2CCN(c3nc4ccccc4s3)CC2)C1              IC50             1.6

* * *

- Test system: COLO 205
- testMethodNotes: Cytotoxicity against human COLO205 cells expressing BRAF mutant after 3 days by proliferation assay
- Type: functional, cell-based
- conditionLabel: COLO 205, 72 h
reportedProperty: IC50

In [3]: df
Out[3]:
                      structuresmilesstring  assaysystem  recordedresult
0  CC(=O)c1ccc(N2CCN(C(=O)CN3CC[C@@H](C(=O)Nc4ccc(O)c(Cl)c4)C3)CC2)cc1     COLO 205         10.8 µM

* * *

- assaySystem: Casein kinase I isoform delta (Homo sapiens, UniProt P48730)
- Sequence (P48730 whole entry, canonical isoform): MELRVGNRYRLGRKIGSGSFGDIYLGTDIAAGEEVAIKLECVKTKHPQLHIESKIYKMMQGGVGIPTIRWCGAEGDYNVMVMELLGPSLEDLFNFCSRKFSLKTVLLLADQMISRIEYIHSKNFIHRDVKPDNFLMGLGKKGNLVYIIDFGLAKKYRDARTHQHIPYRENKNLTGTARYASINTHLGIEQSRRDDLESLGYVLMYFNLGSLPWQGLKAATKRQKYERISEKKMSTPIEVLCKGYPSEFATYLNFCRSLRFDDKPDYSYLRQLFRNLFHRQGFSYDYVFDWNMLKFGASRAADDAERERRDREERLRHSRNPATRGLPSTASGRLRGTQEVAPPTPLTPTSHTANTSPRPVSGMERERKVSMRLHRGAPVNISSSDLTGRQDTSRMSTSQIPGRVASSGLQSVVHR
- testMethodNotes: Inhibition of CSNK1D (unknown origin)
pIC50: −log10 of the molar value.
reportedProperty: pIC50

>>> df
                      structuresmilesstring  recordedresult
0  CC(=O)c1ccc(N2CCN(C(=O)CN3CC[C@@H](C(=O)Nc4ccc(O)c(Cl)c4)C3)CC2)cc1          < 4.52

* * *

- assaySystem: Mitogen-activated protein kinase 1 (Mus musculus) (UniProt P63085)
- Sequence (P63085 whole entry, looked up): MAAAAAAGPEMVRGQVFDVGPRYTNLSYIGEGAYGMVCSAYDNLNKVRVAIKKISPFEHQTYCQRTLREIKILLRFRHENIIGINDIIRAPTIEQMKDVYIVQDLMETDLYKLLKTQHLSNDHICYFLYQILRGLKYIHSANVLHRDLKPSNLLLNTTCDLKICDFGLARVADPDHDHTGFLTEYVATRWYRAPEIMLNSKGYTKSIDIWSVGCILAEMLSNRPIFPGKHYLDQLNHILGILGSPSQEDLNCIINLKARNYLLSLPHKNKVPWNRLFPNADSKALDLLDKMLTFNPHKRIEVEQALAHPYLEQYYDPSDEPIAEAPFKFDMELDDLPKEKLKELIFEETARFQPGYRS
- testMethodNotes: Inhibition of inactive ERK2 (mouse) coupled with human MEK1 using IMAP peptide substrate after 30 mins by coupled ERK2 assay
IC50 values for the molecules below.
reportedProperty: IC50

>>> df
                      structuresmilesstring  recordedresult
0  CC(=O)c1ccc(N2CCN(C(=O)CN3CC[C@@H](C(=O)Nc4ccc(O)c(Cl)c4)C3)CC2)cc1          360 nM
1  O=C(Nc1ccc(O)c(Cl)c1)[C@@H]1CCN(CC(=O)N2CCN(c3nc4ccccc4s3)CC2)C1          480 nM
2  O=C(Nc1ccc(O)c(Cl)c1)[C@@H]1CCN(CC(=O)N2CCN(c3ccc(-c4ccsc4)cc3)CC2)C1         2100 nM
3  CC(=O)c1ccc(N2CCN(C(=O)CN3CC[C@@H](C(=O)Nc4ccc(O)cc4Cl)C3)CC2)cc1        12700 nM
4  O=C(NOC[C@H](O)CO)c1ccc(F)c(F)c1Nc1ccc(I)cc1F           25 nM
5  CC(=O)c1ccc(N2CCN(C(=O)CN3CC[C@@H](C(=O)Nc4cc(Cl)c(O)c(Cl)c4)C3)CC2)cc1      > 10000 nM
6  O=C(Nc1ccc(O)c(Cl)c1)[C@@H]1CCN(CC(=O)N2CCN(c3cccc(Cl)c3)CC2)C1          700 nM
7  CC(=O)c1ccc(N2CCN(C(=O)CN3CC[C@@H](C(=O)Nc4ccc(O)c(C)c4)C3)CC2)cc1         4200 nM
8  CC(=O)c1ccc(N2CCN(C(=O)CN3CC[C@H](C(=O)Nc4ccc(O)c(Cl)c4)C3)CC2)cc1         3600 nM

* * *

- assaySystem: UniProt:P08581
- Sequence (P08581 whole entry): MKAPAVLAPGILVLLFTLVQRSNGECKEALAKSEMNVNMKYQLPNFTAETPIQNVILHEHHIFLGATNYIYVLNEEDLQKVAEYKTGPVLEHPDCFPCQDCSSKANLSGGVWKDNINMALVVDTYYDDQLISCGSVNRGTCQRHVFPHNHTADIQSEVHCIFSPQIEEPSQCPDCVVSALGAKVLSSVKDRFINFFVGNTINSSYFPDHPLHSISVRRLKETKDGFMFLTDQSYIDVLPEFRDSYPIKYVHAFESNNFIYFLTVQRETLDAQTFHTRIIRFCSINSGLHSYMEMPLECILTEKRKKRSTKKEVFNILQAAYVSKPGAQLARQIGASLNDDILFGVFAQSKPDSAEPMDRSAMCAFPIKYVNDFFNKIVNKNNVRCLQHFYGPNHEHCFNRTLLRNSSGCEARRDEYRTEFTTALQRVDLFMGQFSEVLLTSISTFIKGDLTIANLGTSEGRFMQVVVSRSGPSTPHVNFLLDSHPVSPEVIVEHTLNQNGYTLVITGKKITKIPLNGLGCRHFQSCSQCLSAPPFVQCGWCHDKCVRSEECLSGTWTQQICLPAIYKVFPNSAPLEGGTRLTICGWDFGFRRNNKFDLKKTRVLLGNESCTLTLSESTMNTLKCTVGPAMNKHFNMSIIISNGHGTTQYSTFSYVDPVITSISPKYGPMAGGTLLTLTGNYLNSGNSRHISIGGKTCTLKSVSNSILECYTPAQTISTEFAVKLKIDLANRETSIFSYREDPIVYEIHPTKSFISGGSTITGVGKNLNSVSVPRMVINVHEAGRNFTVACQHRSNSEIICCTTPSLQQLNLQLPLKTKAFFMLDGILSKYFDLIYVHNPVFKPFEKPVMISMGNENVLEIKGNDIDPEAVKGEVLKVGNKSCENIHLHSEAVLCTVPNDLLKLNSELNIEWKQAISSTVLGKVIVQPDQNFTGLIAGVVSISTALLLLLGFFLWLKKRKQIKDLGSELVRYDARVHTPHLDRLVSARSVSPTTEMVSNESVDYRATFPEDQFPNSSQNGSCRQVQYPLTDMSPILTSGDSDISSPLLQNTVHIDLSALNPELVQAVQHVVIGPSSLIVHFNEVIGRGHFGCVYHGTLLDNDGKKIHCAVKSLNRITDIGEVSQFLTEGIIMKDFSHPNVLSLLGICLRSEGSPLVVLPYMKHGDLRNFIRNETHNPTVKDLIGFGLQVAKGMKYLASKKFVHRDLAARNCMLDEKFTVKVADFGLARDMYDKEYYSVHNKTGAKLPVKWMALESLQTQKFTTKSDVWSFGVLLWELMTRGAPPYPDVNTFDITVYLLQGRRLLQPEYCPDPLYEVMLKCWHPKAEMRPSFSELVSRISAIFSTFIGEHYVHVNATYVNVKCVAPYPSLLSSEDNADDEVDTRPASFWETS
pIC50: −log10 of the molar value.
reportedProperty: pIC50

In [3]: df
Out[3]:
                      structuresmilesstring  recordedresult
0  CC(=O)c1ccc(N2CCN(C(=O)CN3CC[C@@H](C(=O)Nc4ccc(O)c(Cl)c4)C3)CC2)cc1          < 4.52

* * *

- assaySystem: Tyrosine-protein kinase ABL1 (Homo sapiens)
- Sequence (P00519 whole entry): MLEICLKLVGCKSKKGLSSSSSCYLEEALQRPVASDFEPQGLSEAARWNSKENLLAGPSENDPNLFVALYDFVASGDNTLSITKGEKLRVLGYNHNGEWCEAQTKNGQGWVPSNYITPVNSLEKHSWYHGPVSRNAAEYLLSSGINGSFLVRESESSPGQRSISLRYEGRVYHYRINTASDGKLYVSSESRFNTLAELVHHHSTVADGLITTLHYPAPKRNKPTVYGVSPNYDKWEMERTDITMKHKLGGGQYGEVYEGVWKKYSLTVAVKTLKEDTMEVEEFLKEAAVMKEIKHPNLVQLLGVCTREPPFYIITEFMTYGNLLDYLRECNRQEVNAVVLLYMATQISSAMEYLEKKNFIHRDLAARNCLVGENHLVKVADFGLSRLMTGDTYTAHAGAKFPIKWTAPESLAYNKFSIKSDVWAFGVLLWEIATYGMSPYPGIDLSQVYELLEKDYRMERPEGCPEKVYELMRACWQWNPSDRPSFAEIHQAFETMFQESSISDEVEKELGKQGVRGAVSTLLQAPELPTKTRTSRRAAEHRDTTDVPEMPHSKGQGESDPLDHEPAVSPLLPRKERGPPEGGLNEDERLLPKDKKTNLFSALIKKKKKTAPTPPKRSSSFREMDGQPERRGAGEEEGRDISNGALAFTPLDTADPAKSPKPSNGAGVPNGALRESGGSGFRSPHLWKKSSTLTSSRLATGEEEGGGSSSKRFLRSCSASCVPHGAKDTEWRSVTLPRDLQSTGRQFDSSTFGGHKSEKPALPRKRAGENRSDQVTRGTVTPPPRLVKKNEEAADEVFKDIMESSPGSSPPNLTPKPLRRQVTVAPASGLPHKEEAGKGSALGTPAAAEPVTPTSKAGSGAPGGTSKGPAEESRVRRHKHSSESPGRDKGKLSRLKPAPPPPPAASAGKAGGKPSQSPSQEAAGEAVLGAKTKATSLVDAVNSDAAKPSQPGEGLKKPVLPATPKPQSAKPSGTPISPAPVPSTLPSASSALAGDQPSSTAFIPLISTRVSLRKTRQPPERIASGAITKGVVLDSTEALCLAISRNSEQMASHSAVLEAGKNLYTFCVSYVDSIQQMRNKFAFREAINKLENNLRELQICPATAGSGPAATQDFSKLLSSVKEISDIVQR
pIC50: −log10 of the molar value.
reportedProperty: pIC50

In [3]: df
Out[3]:
                      structuresmilesstring                               assaysystem  reportedproperty  recordedresult
0  CC(=O)c1ccc(N2CCN(C(=O)CN3CC[C@@H](C(=O)Nc4ccc(O)c(Cl)c4)C3)CC2)cc1  Tyrosine-protein kinase ABL1 (Homo sapiens)             pIC50          < 4.52
